Exercise: state measured combination Emax for each of the compounds provided.
# Test system: HCC38 (Breast Carcinoma)
# measurement-notes: combination Emax (second highest fraction inhibited in the dose matrix, 72 h); higher = more inhibition; extreme values may be limits of the assay
Number only, please.

Item: CS(=O)(=O)CCNCc1ccc(-c2ccc3ncnc(Nc4ccc(OCc5cccc(F)c5)c(Cl)c4)c3c2)o1 [Lapatinib] + NC1(c2ccc(-c3nc4ccn5c(=O)[nH]nc5c4cc3-c3ccccc3)cc2)CCC1 [MK-2206] (first compound max 10 µM, 7x7, partner max 10 µM) Test system: HCC38 (Breast Carcinoma) Read-out: combination Emax Value: ?
0.503

One more compound: COc1nnc2ccc(N3CCC(c4ccc(OCCN5CCN(C)C(=O)[C@H]5C)cc4)CC3)nn12 [AZD5153] + CCN(CCO)CCCOc1ccc2c(Nc3cc(CC(=O)Nc4cccc(F)c4)[nH]n3)ncnc2c1 [AZD2811] (first compound max 1 µM, 7x7, partner max 1 µM)
0.426

One more compound: CC(=O)c1c(C)c2cnc(Nc3ccc(N4CCNCC4)cn3)nc2n(C2CCCC2)c1=O [Palbociclib] + Cn1cnc2c(F)c(Nc3ccc(Br)cc3Cl)c(C(=O)NOCCO)cc21 [Selumetinib] (first compound max 10 µM, 7x7, partner max 10 µM)
0.139

One more compound: COc1cccc(OCCCN)c1-c1cc(Nc2cnc(C#N)cn2)n[nH]1 [Prexasertib] + CN(C)CCCOc1ccc(-c2ccc3ncc4c(c3c2)n(C2CCOCC2)c(=O)n4C)cn1 [AZD0156] (first compound max 1 µM, 7x7, partner max 1 µM)
0.711

====

# Test system: TYK-nu (Ovarian Carcinoma)
# measurement-notes: combination Emax (second highest fraction inhibited in the dose matrix, 72 h); higher = more inhibition; extreme values may be limits of the assay
Exercise: state measured combination Emax for each of the compounds provided.

What value of combination Emax has been recorded for this entry: CCN(CCO)CCCOc1ccc2c(Nc3cc(CC(=O)Nc4cccc(F)c4)[nH]n3)ncnc2c1 [AZD2811] + C[C@@H]1COCCN1C2=NC(=NC(=C2)C3(CC3)[S@](=N)(=O)C)C4=C5C=CNC5=NC=C4 [AZD6738] (first compound max 1 µM, 7x7, partner max 10 µM)
0.717

One more compound: CC(=O)Nc1cccc(-n2c(=O)n(C3CC3)c(=O)c3c(Nc4ccc(I)cc4F)n(C)c(=O)c(C)c32)c1 [Trametinib] + Cc1nc(-c2cn3c(n2)-c2ccc(-c4cnn(C(C)(C)C(N)=O)c4)cc2OCC3)n(C(C)C)n1 [Taselisib] (first compound max 1 µM, 7x7, partner max 10 µM)
0.737

====

Exercise: state measured combination Emax for each of the compounds provided.
# Test system: GDM-1 (Acute Myeloid Leukemia)
# measurement-notes: combination Emax (second highest fraction inhibited in the dose matrix, 72 h); higher = more inhibition; extreme values may be limits of the assay
Number only, please.

What value of combination Emax has been recorded for this entry: CC1(C)CCC(CN2CCN(c3ccc(C(=O)NS(=O)(=O)c4ccc(NCC5CCOCC5)c([N+](=O)[O-])c4)c(Oc4cnc5[nH]ccc5c4)c3)CC2)=C(c2ccc(Cl)cc2)C1 [Venetoclax] + Cc1cc2ncnn2cc1Nc1ncc2c(n1)n(C1CCOCC1)c(=O)n2C [AZD7648] (first compound max 1 µM, 7x7, partner max 10 µM)
0.842

One more compound: NC1(C(=O)N[C@@H](CCO)c2ccc(Cl)cc2)CCN(c2ncnc3[nH]ccc23)CC1 [Capivasertib] + CC(C)n1c(=O)n(C)c2cnc3cc(F)c(-c4ccc(OCCCN5CCCCC5)nc4)cc3c21 [AZD1390] (first compound max 10 µM, 7x7, partner max 0.3 µM)
0.401

One more compound: NC1(C(=O)N[C@@H](CCO)c2ccc(Cl)cc2)CCN(c2ncnc3[nH]ccc23)CC1 [Capivasertib] + CCN(CCO)CCCOc1ccc2c(Nc3cc(CC(=O)Nc4cccc(F)c4)[nH]n3)ncnc2c1 [AZD2811] (first compound max 10 µM, 7x7, partner max 1 µM)
0.837

One more compound: Cc1cc2ncnn2cc1Nc1ncc2c(n1)n(C1CCOCC1)c(=O)n2C [AZD7648] + C[C@@H]1COCCN1C2=NC(=NC(=C2)C3(CC3)[S@](=N)(=O)C)C4=C5C=CNC5=NC=C4 [AZD6738] (first compound max 10 µM, 7x7, partner max 10 µM)
0.789

One more compound: CN(CCO)CC[C@H](CSc1ccccc1)Nc1ccc(S(=O)(=O)NC(=O)c2ccc(N3CCC([C@@H](O)c4ccccc4-c4ccc(Cl)cc4)CC3)cc2)cc1S(=O)(=O)C(F)(F)F [AZD4320] + C[C@@H](Nc1cc(F)cc(F)c1)c1cc(C(=O)N(C)C)cc2c(=O)cc(N3CCOCC3)oc12 [AZD8186] (first compound max 1 µM, 7x7, partner max 3 µM)
1

One more compound: CN(CCO)CC[C@H](CSc1ccccc1)Nc1ccc(S(=O)(=O)NC(=O)c2ccc(N3CCC([C@@H](O)c4ccccc4-c4ccc(Cl)cc4)CC3)cc2)cc1S(=O)(=O)C(F)(F)F [AZD4320] + C=CCn1c(=O)c2cnc(Nc3ccc(N4CCN(C)CC4)cc3)nc2n1-c1cccc(C(C)(C)O)n1 [AZD1775] (first compound max 1 µM, partner max 1 µM)
1

One more compound: CN(C)CCCOc1ccc(-c2ccc3ncc4c(c3c2)n(C2CCOCC2)c(=O)n4C)cn1 [AZD0156] + C=CCn1c(=O)c2cnc(Nc3ccc(N4CCN(C)CC4)cc3)nc2n1-c1cccc(C(C)(C)O)n1 [AZD1775] (first compound max 1 µM, partner max 1 µM)
0.823

The measurements presented in this section are drawn from the supplement of paper PMC11061612.
